# target.system: T1, Bfl-1, Q16548
# T1 chain: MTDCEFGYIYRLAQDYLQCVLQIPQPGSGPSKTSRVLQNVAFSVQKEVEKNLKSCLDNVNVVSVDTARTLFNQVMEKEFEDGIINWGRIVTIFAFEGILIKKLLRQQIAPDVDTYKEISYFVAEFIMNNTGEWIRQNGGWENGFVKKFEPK
# assay.remarks: peptide SPOT array, c-Myc-tagged receptor at 1 uM or 100 nM, anti-c-Myc-Cy3
readout.name: SPOT signal as a fraction of Bim BH3's signal on the same receptor and array
Write the number on its own, no unit after it.

A selection of reference data follows.
RLRQLGVAKKFGVLLDNFKGKRIVLV [PPAT]    0.69
AIILCNVCGNLCTDLDRFLHLHRRTK [MYCBP2]    0.28
VDVIDDHERGLIRNGRDFLLALERQG [DEDD]    0.02
AEHEDDLPENLSEIADLWNSPTRTHG [CDH23]    0.01

Please find the next binder below.
Sure, the documented SPOT signal as a fraction of Bim BH3's signal on the same receptor and array for PYLSKHRADRMRRLLDFLNQESFDLA [SMPD2] is 0.53
